Biological target: human meprin α (Homo sapiens, UniProt Q16819)
Sequence (Q16819 66-746): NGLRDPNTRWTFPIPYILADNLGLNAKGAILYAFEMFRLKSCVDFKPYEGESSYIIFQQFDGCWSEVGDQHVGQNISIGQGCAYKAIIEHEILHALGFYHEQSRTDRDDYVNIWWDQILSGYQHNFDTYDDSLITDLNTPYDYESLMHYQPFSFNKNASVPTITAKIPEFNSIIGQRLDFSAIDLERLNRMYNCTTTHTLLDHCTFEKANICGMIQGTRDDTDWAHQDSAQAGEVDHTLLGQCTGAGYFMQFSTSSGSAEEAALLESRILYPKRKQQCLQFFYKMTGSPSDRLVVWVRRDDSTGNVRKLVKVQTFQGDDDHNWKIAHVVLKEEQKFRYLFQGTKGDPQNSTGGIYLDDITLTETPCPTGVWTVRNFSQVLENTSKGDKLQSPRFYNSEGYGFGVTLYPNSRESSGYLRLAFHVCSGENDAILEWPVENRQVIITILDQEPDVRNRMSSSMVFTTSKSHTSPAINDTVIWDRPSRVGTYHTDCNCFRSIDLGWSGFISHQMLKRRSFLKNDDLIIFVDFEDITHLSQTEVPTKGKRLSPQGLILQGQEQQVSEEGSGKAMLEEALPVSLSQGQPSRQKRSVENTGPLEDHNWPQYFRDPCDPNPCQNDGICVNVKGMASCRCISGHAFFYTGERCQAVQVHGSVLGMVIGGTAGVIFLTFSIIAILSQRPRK
Format: biochemical
Conditions: meprin α over meprin β
parameter.measured: SF: selectivity factor (Ki(app) meprin β/Ki(app) meprin α)

Form field SF: selectivity factor (Ki(app) meprin β/Ki(app) meprin α), entry O=C(Cc1c(-c2cccc(-c3nnn[nH]3)c2)n[nH]c1-c1ccccc1)NO [14p] : 10

Form field SF: selectivity factor (Ki(app) meprin β/Ki(app) meprin α), entry Cc1n[nH]c(-c2ccccc2)c1CC(=O)NO [14a] : 7

Form field SF: selectivity factor (Ki(app) meprin β/Ki(app) meprin α), entry O=C(Cc1c(-c2cccc(C(=O)O)c2)n[nH]c1-c1cc(F)c(O)c(Cl)c1)NO [16j] : 2

Form field SF: selectivity factor (Ki(app) meprin β/Ki(app) meprin α), entry O=C(Cc1c(-c2ccccc2)nn(Cc2ccc3c(c2)OCO3)c1-c1ccccc1)NO [21f] : 508

Form field SF: selectivity factor (Ki(app) meprin β/Ki(app) meprin α), entry O=C(Cc1c(-c2ccccc2)[nH]nc1[C@H]1CC[C@H](C(=O)O)CC1)NO [14s] : 8

Form field SF: selectivity factor (Ki(app) meprin β/Ki(app) meprin α), entry O=C(CCc1c(-c2ccccc2)nn(Cc2ccc(Cl)c(O)c2F)c1-c1ccccc1)NO [compound 22] : 7892

Form field SF: selectivity factor (Ki(app) meprin β/Ki(app) meprin α), entry O=C(Cc1c(-c2ccc(C(=O)O)cc2)n[nH]c1-c1ccccc1)NO [14k] : 7

Form field SF: selectivity factor (Ki(app) meprin β/Ki(app) meprin α), entry O=C(Cc1c(-c2ccccc2)nn(Cc2ccc(C(=O)O)cc2)c1-c1ccccc1)NO [21h] : 24

Form field SF: selectivity factor (Ki(app) meprin β/Ki(app) meprin α), entry O=C(Cc1c(-c2cccc(C(=O)O)c2)n[nH]c1-c1ccccc1)NO [14j] : 6

====

Target: MMP2 (Homo sapiens, UniProt P08253)
Sequence (P08253 110-660): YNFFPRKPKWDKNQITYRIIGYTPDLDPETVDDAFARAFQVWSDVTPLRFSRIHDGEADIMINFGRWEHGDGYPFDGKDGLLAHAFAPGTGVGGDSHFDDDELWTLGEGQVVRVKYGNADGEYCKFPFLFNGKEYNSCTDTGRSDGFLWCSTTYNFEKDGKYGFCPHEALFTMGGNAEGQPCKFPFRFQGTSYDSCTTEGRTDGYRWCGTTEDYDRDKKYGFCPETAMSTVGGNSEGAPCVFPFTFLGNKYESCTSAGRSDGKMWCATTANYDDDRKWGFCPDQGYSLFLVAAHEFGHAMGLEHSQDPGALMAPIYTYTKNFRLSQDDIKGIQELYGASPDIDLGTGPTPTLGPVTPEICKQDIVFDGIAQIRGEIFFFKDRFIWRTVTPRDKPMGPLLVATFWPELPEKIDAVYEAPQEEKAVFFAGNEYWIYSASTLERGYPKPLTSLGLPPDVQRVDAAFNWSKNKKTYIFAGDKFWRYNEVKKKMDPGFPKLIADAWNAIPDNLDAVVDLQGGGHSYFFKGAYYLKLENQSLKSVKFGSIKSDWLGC
Assay: Off-target metalloprotease inhibition, MMP2
Type: biochemical
Settings: read-out: Residual activity MMP2
We label by threshold. Values of remaining activity at 10 µM strictly beneath 80% are class 1. Values of 80% and up are class 0.

Please check: remaining activity at 10 µM for O=C(Cc1c(-c2ccc3c(c2)OCO3)n[nH]c1-c1ccccc1)NO [14f] , strictly under 80% or not?
class 1

Please check: remaining activity at 10 µM for O=C(CCc1c(-c2ccccc2)nn(Cc2ccc(Cl)c(O)c2F)c1-c1ccccc1)NO [compound 22] , strictly under 80% or not?
class 0

Please check: remaining activity at 10 µM for O=C(Cc1c(-c2ccccc2)nn(Cc2ccc3c(c2)OCO3)c1-c1ccccc1)NO [21f] , strictly under 80% or not?
class 1

Please check: remaining activity at 10 µM for O=C(Cc1c(-c2ccccc2)nn(Cc2ccc(Cl)c(O)c2F)c1-c1ccccc1)NO [21i] , strictly under 80% or not?
class 1

Please check: remaining activity at 10 µM for COc1ccc(-c2n[nH]c(-c3ccccc3)c2CC(=O)NO)cc1OC [14g] , strictly under 80% or not?
class 0

Please check: remaining activity at 10 µM for O=C(Cc1c(-c2cc(F)c(O)c(Cl)c2)n[nH]c1-c1ccccc1)NO [14m] , strictly under 80% or not?
class 1
